target: HLA-A*02:01 (Homo sapiens, UniProt P04439, D140Y/D185E/D98H/E176V/E277Q/G131W/G231S/I119V/I121R/I166T/I218V/L300P/L318F/N151K/N90K/P208A/P217A/Q86G/Q94H/R138H/R169H/T345S); assay: MHC binding assay (UV-ligand exchange, ELISA of stabilized MHC complexes); conditions: MHC class I binding score; binding to HLA-A*02:01 ranged by peptide exchange yield (UV-ligand exchange, ELISA)
measuredAttribute: Peptide exchange

substance	measured
261 (YVLEFLEEI; listed as Homo sapiens) [compound 261]	″++″ (≥20% = ++)
401 (ILLDDTGLAYI; listed as Homo sapiens) [compound 401]	″+++″ (≥50% = +++)
96 (YIFTDNPAAV; listed as Homo sapiens) [compound 96]	″+++″ (≥50% = +++)
93 (LLQAIKLYL; listed as Homo sapiens) [compound 93]	″++″ (≥20% = ++)

###

target: HLA-A*02:01 (Homo sapiens, UniProt P04439, D140Y/D185E/D98H/E176V/E277Q/G131W/G231S/I119V/I121R/I166T/I218V/L300P/L318F/N151K/N90K/P208A/P217A/Q86G/Q94H/R138H/R169H/T345S); assay: MHC binding assay (UV-ligand exchange, ELISA of stabilized MHC complexes); details: MHC class I binding score; binding to HLA-A*02:01 ranged by peptide exchange yield (UV-ligand exchange, ELISA)
measuredAttribute: Peptide exchange

substance	Peptide exchange
66 (FLDENIGGVAV; listed as Homo sapiens) [compound 66]	″+++″ (≥50% = +++)
57 (TLAELQPPVQL; listed as Homo sapiens) [compound 57]	″+++″ (≥50% = +++)
441 (ALLENPKMEL; listed as Homo sapiens) [compound 441]	″+++″ (≥50% = +++)
453 (KLLEATSAV; listed as Homo sapiens) [compound 453]	″++″ (≥20% = ++)
32 (KLDDLTQDLTV; listed as Homo sapiens) [compound 32]	″++″ (≥20% = ++)

IN: For the substance shown here, 431 (SLVNVVPKL; listed as Homo sapiens) [compound 431] , give the reported Peptide exchange.
OUT: ″++″ (≥20% = ++)

IN: Similarly, 22 (IMEENPGIFAV; listed as Homo sapiens) [compound 22] ?
OUT: ″+++″ (≥50% = +++)

IN: Similarly, 132 (LLVEQPPLAGV; listed as Homo sapiens) [compound 132] ?
OUT: ″+++″ (≥50% = +++)

###

target: HLA-A*02:01 (Homo sapiens, UniProt P04439, D140Y/D185E/D98H/E176V/E277Q/G131W/G231S/I119V/I121R/I166T/I218V/L300P/L318F/N151K/N90K/P208A/P217A/Q86G/Q94H/R138H/R169H/T345S); test: MHC binding assay (UV-ligand exchange, ELISA of stabilized MHC complexes); conditions: MHC class I binding score; binding to HLA-A*02:01 ranged by peptide exchange yield (UV-ligand exchange, ELISA)
measuredAttribute: Peptide exchange

substance	measuredAttribute	measured
336 (ILLTAIVQV; listed as Homo sapiens) [compound 336]	Peptide exchange	″+++″ (≥50% = +++)
223 (ALLENIALYL; listed as Homo sapiens) [compound 223]	Peptide exchange	″+++″ (≥50% = +++)
300 (ALLGQTFSL; listed as Homo sapiens) [compound 300]	Peptide exchange	″+++″ (≥50% = +++)
204 (KIAENVEEV; listed as Homo sapiens) [compound 204]	Peptide exchange	″++″ (≥20% = ++)

IN: For the substance shown here, 319 (SLEPQIQPV; listed as Homo sapiens) [compound 319] , give the reported Peptide exchange.
OUT: ″++″ (≥20% = ++)

IN: Similarly, 598 (FLFPHSVLV; listed as Homo sapiens) [compound 598] ?
OUT: ″+++″ (≥50% = +++)

IN: Similarly, 547 (TLDITPHTV; listed as Homo sapiens) [compound 547] ?
OUT: ″+++″ (≥50% = +++)

IN: Similarly, 389 (LLADVTHLL; listed as Homo sapiens) [compound 389] ?
OUT: ″++″ (≥20% = ++)

IN: Similarly, 459 (ALITEVVRL; listed as Homo sapiens) [compound 459] ?
OUT: ″++″ (≥20% = ++)
